Recorded values, source ChEMBL document CHEMBL1144686.

System: DNA
assay_info: Binding affinity to calf thymus DNA at pH 7.0 at 20 uM after 18 hrs by thermal denaturation assay
Assay type: nucleic-acid assay
setup_conditions: Bos taurus
Quick rule: deltaTm of at least 4 °C means label 1, below that means label 0.

[[record]]
substance_smiles = "COc1cc(/C=C/C(=O)c2ccccc2O)ccc1OCCCOc1cc2c(cc1OC)C(=O)N1CCC[C@H]1C(=O)N2"
classification = "label 0"

[[record]]
substance_smiles = "COc1cc(/C=C/C(=O)c2ccccc2O)ccc1OCCCCCOc1cc2c(cc1OC)C(=O)N1CCC[C@H]1C=N2"
classification = "label 1"

[[record]]
substance_smiles = "COc1cc(/C=C/C(=O)c2ccccc2O)ccc1OCCCCOc1cc2c(cc1OC)C(=O)N1CCC[C@H]1C(=O)N2"
classification = "label 0"

[[record]]
substance_smiles = "COc1cc2c(cc1O)N=C[C@@H]1CCCN1C2=O"
classification = "label 0"

[[record]]
substance_smiles = "COc1cc(/C=C/C(=O)c2ccccc2O)ccc1OCCCCCOc1cc2c(cc1OC)C(=O)N1CCC[C@H]1C(=O)N2"
classification = "label 1"

[[record]]
substance_smiles = "COc1cc(/C=C/C(=O)c2ccccc2O)ccc1OCCCOc1cc2c(cc1OC)C(=O)N1CCC[C@H]1C=N2"
classification = "label 1"

